- target: T1, rhNav1.7α + β1-β2-β3 (rhesus monkey)
- T1 construct: also called rhNav1.7-beta1-beta2-beta3; rhesus Nav1.7α
- methodDescription: binding FACS, CHO FlpIn cells
measuredEndpoint: Bmax

F010302338 (VHH) VHH: EVQLVESGGGVVQPGGSLRLSCAASHRAFIRDVFTGWYRRAPGKQRELVARIYESGNTQYADSAKGRFTISRDNAKKTVYLQMNSLRPEDTALYYCLFSGTISTGREYRSGDYWGQGTLVTVSS : 100%
F010301890 (VHH, T35V vs F0103464B09 (Kabat)) VHH: EVQLVESGGGLVQPGGSLRLSCATTSRAFIRDVFVGWYRRVPGKERELVARIYNGGNTNYADFAKGRFSISRDNAKKMVTLRMSNLKPEDTGVYYCLFSGTINTGREYRSGDYWGQGTLVTVSS : 58%
F010301888 (VHH, S26H vs F0103464B09 (Kabat)) VHH: EVQLVESGGGLVQPGGSLRLSCATTHRAFIRDVFTGWYRRVPGKERELVARIYNGGNTNYADFAKGRFSISRDNAKKMVTLRMSNLKPEDTGVYYCLFSGTINTGREYRSGDYWGQGTLVTVSS : 95%

Please state Bmax for every binder in the list that follows.
1. F010301892 (VHH, V33L vs F0103464B09 (Kabat); also called F0103464B09(V33L)) VHH: EVQLVESGGGLVQPGGSLRLSCATTSRAFIRDLFTGWYRRVPGKERELVARIYNGGNTNYADFAKGRFSISRDNAKKMVTLRMSNLKPEDTGVYYCLFSGTINTGREYRSGDYWGQGTLVTVSS
2. F010302335 (VHH) VHH: EVQLVESGGGVVQPGGSLRLSCAASSRQFIRDVFTGWYRRAPGKQRELVARIYESGNTQYADSAKGRFTISRDNAKKTVYLQMNSLRPEDTALYYCLFSGTISTGREYRSGDYWGQGTLVTVSS

OUTPUT:
1. 100%
2. 84%

meta.source: patent US20240002497A1
